Property: Emax at 2 h, 10 µM; scope: individual molecules
TARGET OR SYSTEM: 5-HT2B receptor (Homo sapiens, UniProt P41595)
Sequence (P41595 whole entry): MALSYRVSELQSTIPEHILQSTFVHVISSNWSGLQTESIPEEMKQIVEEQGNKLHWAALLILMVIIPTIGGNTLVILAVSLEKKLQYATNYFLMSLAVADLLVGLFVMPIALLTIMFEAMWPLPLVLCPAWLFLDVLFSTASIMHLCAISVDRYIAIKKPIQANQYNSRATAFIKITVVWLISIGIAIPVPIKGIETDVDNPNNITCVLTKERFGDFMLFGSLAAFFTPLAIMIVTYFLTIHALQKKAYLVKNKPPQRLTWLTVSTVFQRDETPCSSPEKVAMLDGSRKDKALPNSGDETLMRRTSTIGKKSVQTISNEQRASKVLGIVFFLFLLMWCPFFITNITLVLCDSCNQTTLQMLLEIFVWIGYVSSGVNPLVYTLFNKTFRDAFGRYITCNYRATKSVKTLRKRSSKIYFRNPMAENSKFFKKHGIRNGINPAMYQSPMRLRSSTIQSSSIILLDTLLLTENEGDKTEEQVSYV
ASSAY COMMENT: Agonist activity at 5-HT2B receptor (unknown origin) expressed in HEK293 cells assessed as [3H]inositol phosphate accumulation at 10 uM after 2 hrs by scintillation counting relative to serotonin
Assay type: cell-based
CONDITION LABEL: HEK293 cells expressing 5-HT2B receptor
Response body: numeric value in %, unit text excluded.

Use these answered entries as a reference point.
{"columns": ["MOLECULE", "TARGET OR SYSTEM", "MEASUREMENT TYPE", "QUANTITY UNIT", "READOUT NUMBER"],
 "data": [
  ["COc1ccc2c(c1)CCC1CNCCN21 (configuration not stated)", "5-HT2B receptor (Homo sapiens, UniProt P41595)", "Emax at 2 h, 10 µM", "%", 57],
  ["Cc1cccc2c1CCC1CNCCN21 (configuration not stated)", "5-HT2B receptor (Homo sapiens, UniProt P41595)", "Emax at 2 h, 10 µM", "%", 65],
  ["COCc1cccc2c1CCC1CNCCN21 (configuration not stated)", "5-HT2B receptor (Homo sapiens, UniProt P41595)", "Emax at 2 h, 10 µM", "%", 77],
  ["CCCc1ccc2c(c1)N1CCNCC1CC2 (configuration not stated)", "5-HT2B receptor (Homo sapiens, UniProt P41595)", "Emax at 2 h, 10 µM", "%", 19],
  ["COc1ccc2c(c1)N1CCCNC[C@H]1CC2", "5-HT2B receptor (Homo sapiens, UniProt P41595)", "Emax at 2 h, 10 µM", "%", 37]
]}

State its Emax at 2 h, 10 µM for this molecule: Cc1cccc2c1N1CCNCC1CC2 (configuration not stated)
10

State its Emax at 2 h, 10 µM for this molecule: COc1cc2c(cc1Cl)N1CCCNC[C@H]1CC2
23

###

TARGET OR SYSTEM: UniProtKB P41595
ASSAY COMMENT: Agonist activity at 5-HT2B receptor (unknown origin) expressed in HEK293 cells assessed as [3H]inositol phosphate accumulation after 2 hrs by scintillation counting
MEASUREMENT TYPE: log10 of EC50 (log10 of the value in nM)
Give log10 of EC50, with EC50 taken in nM.

State its log10 of EC50 for this compound: COc1cccc2c1CC[C@@H]1CNCCCN21
2.60

State its log10 of EC50 for this compound: Fc1ccc2c(c1Cc1ccccc1)CC[C@@H]1CNCCCN21
3.90

State its log10 of EC50 for this compound: COc1ccc2c(c1)CC[C@@H]1CNCCCN21
3.10

State its log10 of EC50 for this compound: CCCc1cccc2c1CCC1CNCCN21 (configuration not stated)
2.30

State its log10 of EC50 for this compound: Cc1cccc2c1N1CCNCC1CC2 (configuration not stated)
1.70

State its log10 of EC50 for this compound: COCc1cccc2c1CCC1CNCCN21 (configuration not stated)
3.10

State its log10 of EC50 for this compound: COc1cc2c(cc1Cl)CC[C@@H]1CNCCCN21
1.80

###

TARGET OR SYSTEM: 5-hydroxytryptamine receptor 2C (Homo sapiens)
Sequence (whole entry): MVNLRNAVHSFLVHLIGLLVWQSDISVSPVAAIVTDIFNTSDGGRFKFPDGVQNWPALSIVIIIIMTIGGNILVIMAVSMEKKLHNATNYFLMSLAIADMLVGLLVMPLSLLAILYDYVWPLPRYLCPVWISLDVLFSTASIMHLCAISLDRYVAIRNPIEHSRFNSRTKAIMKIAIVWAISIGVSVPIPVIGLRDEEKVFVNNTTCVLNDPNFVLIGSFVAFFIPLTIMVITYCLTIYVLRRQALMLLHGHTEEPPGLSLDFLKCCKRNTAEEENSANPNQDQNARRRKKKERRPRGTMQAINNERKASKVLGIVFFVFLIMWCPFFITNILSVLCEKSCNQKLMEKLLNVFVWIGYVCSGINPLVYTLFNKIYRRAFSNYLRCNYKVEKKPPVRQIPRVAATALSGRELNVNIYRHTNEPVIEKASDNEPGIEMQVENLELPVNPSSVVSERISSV
ASSAY COMMENT: Agonist activity at unedited 5-HT2C receptor (unknown origin) expressed in HEK293 cells assessed as [3H]inositol phosphate accumulation at 10 uM after 2 hrs by scintillation counting relative to serotonin
Type: functional, cell-based
MEASUREMENT TYPE: Emax (%)
Response body: numeric value in %, unit text excluded.

Use these answered entries as a reference point.
{"columns": ["MOLECULE", "READOUT NUMBER"],
 "data": [
  ["c1ccc2c(c1)CC[C@@H]1CNCCN21", 97],
  ["COc1ccc2c(c1Cl)N1CCCNC[C@H]1CC2", 72],
  ["Fc1ccc2c(c1)CCC1CNCCN21 (stereo not given)", 96],
  ["c1csc(Cc2cccc3c2CCC2CNCCN32)c1 (stereo not given)", 106],
  ["c1cc(OC2CCC2)c2c(c1)N1CCNCC1CC2 (stereo not given)", 98]
]}

State its Emax for this molecule: Clc1cccc2c1N1CCCNCCC1CC2 (stereo not given)
85

State its Emax for this molecule: COCc1cccc2c1CCC1CNCCN21 (stereo not given)
113

State its Emax for this molecule: c1cc(CC2CCC2)c2c(c1)N1CCNCC1CC2 (stereo not given)
106

State its Emax for this molecule: COc1ccc2c(c1)CCC1CNCCN21 (stereo not given)
101

State its Emax for this molecule: Fc1ccc2c(c1Cc1ccccc1)CC[C@@H]1CNCCCN21
108

Where these numbers come from: ChEMBL document CHEMBL3871286
